Entries and their measured CC50 at 5 days follow.
# Assay overview: in vitro
# Settings: human, CC50 nM in MT-4
Numeric only. Scale: nM

INSERT INTO results (compound, unit_tag, readout_value) VALUES
  ('O=C(NCc1ccc(F)cc1OC1CC1)c1cn2c(c(O)c1=O)C(=O)N1[C@H]3CC[C@H](C3)O[C@@H]1C2', 'nM', 3350),
  ('O=C(NCc1ccc(F)cc1C(F)(F)F)c1cn2c(c(O)c1=O)C(=O)N1[C@H]3CC[C@H](C3)O[C@@H]1C2', 'nM', 3490),
  ('O=C(N[C@@H](c1ccc(F)cc1F)C(F)(F)F)c1cn2c(c(O)c1=O)C(=O)N1C(C2)O[C@H]2CC[C@@H]1C2 (stereo partly shown)', 'nM', 11400),
  ('O=C(NCc1c(F)ccc(Cl)c1F)c1cn2c(c(O)c1=O)C(=O)N1[C@H]3CC[C@H](C3)[C@@H]1C2', 'nM', 9190),
  ('C[C@H](NC(=O)c1cn2c(c(O)c1=O)C(=O)N1[C@H]3CC[C@H](C3)O[C@@H]1C2)c1ccc(F)cc1F', 'nM', 4940),
  ('C[C@@H]1C[C@H]2C[C@@H]1[C@@H]1Cn3cc(C(=O)NCc4c(F)cc(F)cc4F)c(=O)c(O)c3C(=O)N21', 'nM', 9730);

For the next question, use this compound.
q: Look up CC50 at 5 days for this compound: `O=C(NCc1cc(F)c(F)cc1F)c1cn2c(c(O)c1=O)C(=O)N1[C@H]3CC[C@H](C3)[C@@H]1C2`
a: 12100

Just for reference, patent US9663528B2 is where these values come from.
